biological target: StrepII-tagged ROR1-extracellular domain (human, UniProt Q01973); assay: SPR (Biacore T200), IgG from HEK293T supernatant captured by anti-human Fc, ROR1-strep as analyte, 1:1 model
Sequence (Q01973 other isoform, or with tags, fused parts or gaps): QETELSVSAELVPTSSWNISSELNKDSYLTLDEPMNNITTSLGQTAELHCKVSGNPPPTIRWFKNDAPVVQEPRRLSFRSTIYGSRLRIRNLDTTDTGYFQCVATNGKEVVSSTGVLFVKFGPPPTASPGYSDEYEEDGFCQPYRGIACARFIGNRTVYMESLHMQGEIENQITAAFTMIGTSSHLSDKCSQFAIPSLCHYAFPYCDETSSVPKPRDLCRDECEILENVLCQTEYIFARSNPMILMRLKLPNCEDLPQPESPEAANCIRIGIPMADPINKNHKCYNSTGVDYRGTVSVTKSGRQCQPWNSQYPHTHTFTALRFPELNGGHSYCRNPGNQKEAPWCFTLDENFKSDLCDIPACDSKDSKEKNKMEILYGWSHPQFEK
OBSERVATION TYPE: koff

Problem: Find the recorded koff belonging to huR12_7, humanized from R12 (antibody, V domains shown) VH: QVQLVESGGELVQPGGSLTLSCKASGFDFSAYYMSWVRQAPGKGLEWIATIYPSSGKTYYAASVQGRFTISADNAKNTVSLQMNSLTAADTATYFCARDSYADDGALFNIWGKGTLVTVSS VL: QLVLTQSPSVSAALGSSAKITCTLSSAHKTDTIDWYQQLAGQAPRYLMYVQSDGSYEKRSGVPDRFSGSSSGADRYLIISSVQADDEADYYCGADYIGGYVFGGGTQLTVLG and report it.
Result: 0.000116 s⁻¹
